assay_explanation: Pharmacokinetics test in beagle dogs
Type: in vivo
recorded_conditions: dog, plasma, po, capsule by gavage, dose 10 mg/kg, grain size D90 22 μm
Description: The pharmacokinetic properties of amorphous Compound (I) or the crystalline form A of Compound (I) disclosed herein are assessed in beagle dogs. […] Quantitative analysis was carried out using MRM mode. […] […] The plasma solutions were collected, and analyzed by LC/MS/MS as described above. The pharmacokinetic parameters were calculated according to non-compartment model using WinNonlin procedure.
quantity_measured: half-life (min)
Answer format: numeric, min implied, no suffix.

Quote half-life reported for Cc1c(C(=O)Nc2ccc(Oc3ccnc4cc(OCC(C)(C)O)ccc34)c(F)c2)c(=O)n(-c2ccccc2)n1C.Cc1ccc(S(=O)(=O)O)cc1 [Form A] please.
1500

---

assay_explanation: Pharmacokinetics test in beagle dogs
Format: in vivo
recorded_conditions: dog, plasma, po, capsule by gavage, dose 9.7 mg/kg, grain size D90 32 μm
quantity_measured: Cmax (ng/mL)
Answer format: numeric, ng/mL implied, no suffix.

Identify Cmax associated with the compound Cc1c(C(=O)Nc2ccc(Oc3ccnc4cc(OCC(C)(C)O)ccc34)c(F)c2)c(=O)n(-c2ccccc2)n1C.Cc1ccc(S(=O)(=O)O)cc1
2640

---

assay_explanation: Pharmacokinetics test in beagle dogs
Format: in vivo
recorded_conditions: dog, plasma, po, capsule by gavage, dose 9.7 mg/kg, grain size D90 32 μm
quantity_measured: AUC(0-inf) (ng·h/mL)
Answer with a number only, understood to be in ng·h/mL.

Specify reported AUC(0-inf) for the compound shown: Cc1c(C(=O)Nc2ccc(Oc3ccnc4cc(OCC(C)(C)O)ccc34)c(F)c2)c(=O)n(-c2ccccc2)n1C.Cc1ccc(S(=O)(=O)O)cc1
55300

---

assay_explanation: Pharmacokinetics test in beagle dogs
Type: in vivo
recorded_conditions: dog, plasma, po, capsule by gavage, dose 9.7 mg/kg, grain size D90 32 μm, read-out: AUC0-24 h
quantity_measured: AUC(0-t) (ng·h/mL)
All answers are understood in ng·h/mL, so give the number only.

Quickly give me recorded AUC(0-t) for Cc1c(C(=O)Nc2ccc(Oc3ccnc4cc(OCC(C)(C)O)ccc34)c(F)c2)c(=O)n(-c2ccccc2)n1C.Cc1ccc(S(=O)(=O)O)cc1
37300

---

assay_explanation: Pharmacokinetics test in beagle dogs
Type: in vivo
recorded_conditions: dog, plasma, po, capsule by gavage, dose 9.7 mg/kg, grain size D90 32 μm
quantity_measured: half-life (h)
Kindly provide the numeric value in h only, without the unit symbol.

Note down half-life recorded for Cc1c(C(=O)Nc2ccc(Oc3ccnc4cc(OCC(C)(C)O)ccc34)c(F)c2)c(=O)n(-c2ccccc2)n1C.Cc1ccc(S(=O)(=O)O)cc1
15

---

assay_explanation: Pharmacokinetics test in beagle dogs
Assay type: in vivo
recorded_conditions: dog, plasma, po, capsule by gavage, dose 10 mg/kg, grain size D90 22 μm
quantity_measured: Cmax (ng/mL)
Reply with just the number (in ng/mL).

Determine its reported Cmax: Cc1c(C(=O)Nc2ccc(Oc3ccnc4cc(OCC(C)(C)O)ccc34)c(F)c2)c(=O)n(-c2ccccc2)n1C.Cc1ccc(S(=O)(=O)O)cc1 [Form A]
6190

---

assay_explanation: Pharmacokinetics test in beagle dogs
Format: in vivo
recorded_conditions: dog, plasma, po, capsule by gavage, dose 10 mg/kg, grain size D90 22 μm, read-out: AUC0-24 h
quantity_measured: AUC(0-t) (µg·h/mL)
Give your result in µg·h/mL as a bare value.

Please indicate AUC(0-t) recorded for Cc1c(C(=O)Nc2ccc(Oc3ccnc4cc(OCC(C)(C)O)ccc34)c(F)c2)c(=O)n(-c2ccccc2)n1C.Cc1ccc(S(=O)(=O)O)cc1 [Form A]
131

From: patent US9920033B2
